Examples of compounds with documented TGI follow.
# System: OVCAR-8 ovarian
# experimental details: NCI tumour cell line growth inhibition, 48 h

line notation: O=C(O)c1c(-c2nccc3ccccc23)[nH]c(-c2ccccc2)c1S(=O)(=O)O
TGI: > 100 µM
--
line notation: Cc1cc(NC(=O)c2ccc(C)c(Nc3nccc(-c4cccnc4)n3)c2)cc(-n2cnc(C)c2)c1
TGI: 13.7 µM
--
line notation: O=c1cc(-c2ccccc2)[nH]c2cc3c(cc12)OCO3
TGI: > 100 µM
--
line notation: COc1ccc(CCNC2=CC(=O)c3ncccc3C2=O)cc1OC
TGI: 17.2 µM
--
line notation: CCOC(=O)C1=C(Nc2cccc(OC)c2)OCC1=O
TGI: > 100 µM
--
line notation: Nc1ccncc1/C=C1/C(=O)Nc2ccccc21
TGI: > 100 µM

###

# Test system: UO-31 renal
# experimental details: NCI tumour cell line growth inhibition, 48 h; in the data active = GI50 below about 0.43 µM; inactive = the rest
Labels: active, inactive

compound: COc1cc(NC(C)CCCN)c2nccc(C)c2c1OC (stereo not given)
assayed system: UO-31 renal
class: inactive

compound: COc1cc2cn3c4ccc(O)cc4[nH]c(=O)c3c2cc1OC
assayed system: UO-31 renal
class: active

compound: CC(=O)O[C@@H]1C[C@]2(C(C)C)O[C@@]1(C)[C@@H]1CCC(C)=C1[C@@H]2OC(=O)/C=C/c1ccccc1
assayed system: UO-31 renal
class: inactive

compound: COc1ccc(C2C(C#N)=C(N)OC3=C2COc2ccc(F)cc23)cc1OC (stereo not given)
assayed system: UO-31 renal
class: inactive

compound: c1ccc2c3ccn4cc5c(cc4c-3nc2c1)CCCC5
assayed system: UO-31 renal
class: inactive

###

Examples of molecules with documented TGI follow.
# Test system: A498 renal
# experimental details: NCI tumour cell line growth inhibition, 48 h
measurement kind: TGI (µM)

molecule: COC(=O)[C@@H](NC(=O)[C@@H](OC)[C@@H]1Cc2cc3cc(OC4CC(OC5CC(O)C(O)C(C)O5)C(O)C(C)O4)c(C)c(O)c3c(O)c2C(=O)[C@H]1OC1CC(OC2CC(OC3CC(C)(O)C(O)C(C)O3)C(O)C(C)O2)C(O)C(C)O1)C(C)C (some centres undefined)
assayed system: A498 renal
measurement kind: TGI
sign: =
endpoint result: 0.333
--
molecule: COc1ccnc2c1C(=O)c1nc3ccccc3c3ccnc-2c13
assayed system: A498 renal
measurement kind: TGI
sign: =
endpoint result: 0.0803
--
molecule: CCOC(=O)c1nc2c(Cl)c3ncccc3cc2[nH]c1=O
assayed system: A498 renal
measurement kind: TGI
sign: >
endpoint result: 100
--
molecule: C=CCN1C[C@H](C)N([C@H](c2ccc(C(=O)N(CC)CCO)cc2)c2cccc(OC)c2)C[C@H]1C
assayed system: A498 renal
measurement kind: TGI
sign: >
endpoint result: 100
--
molecule: C#CC(=O)Nc1cccc(Nc2nc3c(c(NCc4ccccc4)n2)CCCC3)c1
assayed system: A498 renal
measurement kind: TGI
sign: =
endpoint result: 0.918
--
molecule: N#Cc1sc2nc(/C=C3/C=CC=CC3=O)c(O)n2c1N
assayed system: A498 renal
measurement kind: TGI
sign: >
endpoint result: 100
--
molecule: Cc1c(C2Nc3ccccc3C2C)[nH]c2ccccc12 (centres undefined)
assayed system: A498 renal
measurement kind: TGI
sign: =
endpoint result: 23.1
--
molecule: CCOC(=O)CC1CCN(C(=O)c2ccccc2)C2Cc3c([nH]c4ccccc34)C12C[N+](=O)[O-] (centres undefined)
assayed system: A498 renal
measurement kind: TGI
sign: >
endpoint result: 100
--
molecule: CCOC(=O)c1csc(NC(=O)C(C)N2CCCCC2)n1 (centres undefined)
assayed system: A498 renal
measurement kind: TGI
sign: >
endpoint result: 100
